system: HOP-62 NSCLC; assay: NCI-60 one-dose screen, 48 h (100 = growth as untreated, 0 = no growth, -100 = all killed); conditions: 10 µM unless noted
Compounds without any hit were thinned out: in the full panel of roughly 83,000, 20% have a hit. The source made the active and inactive calls. The calls were made as follows: active = growth percent below 10; inactive = the rest.
Measurement Label: growth

Prompt: What value of measured growth is listed for O=C1CCC(C(=O)NCCNCCNC(=O)C2CCC(=O)N2)N1 (stereo not drawn) ?
Completion: 93.7% (inactive)

Prompt: Consider next the compound "CCN(CC)CCCNc1nc2ccccc2c2c(=O)c3cc(Cl)ccc3sc12" in the same way.
Completion: 74.4% (inactive)

Prompt: Repeat with "O=c1c2cccc(Cl)c2sc2c(NCCCNCCO)nc3ccccc3c12"
Completion: 39.6% (inactive)

###

Would you kindly list growth for each of these compounds?
system: HS 578T breast; assay: NCI-60 one-dose screen, 48 h (100 = growth as untreated, 0 = no growth, -100 = all killed); settings: 10 µM unless noted
This is part of a sample that, as a whole, favours compounds with a hit. Of some 83,000 tested, about 20% had one in any assay. Calls of active or inactive are those of the source. The calls were made as follows: active = growth percent below 10; inactive = the rest.

Prompt: Please give the measured growth for this compound: "CCc1ccccc1-n1c(N)c(C#N)c(-c2ccc(Cl)cc2)c(C#N)c1=O"
Completion: 92.2% (inactive)

Prompt: // same read-out, input: "Fc1cc(-c2nnc3n2NC(=Nc2ccc(Cl)cc2)CS3)c(Cl)cc1Cl"
Completion: 89.3% (inactive)

Prompt: Now consider "CCCCOc1nc2c(C)cccc2cc1-c1cc(-c2ccc(Cl)cc2)nc(-c2ccc(Cl)cc2)c1" .
Completion: 92.4% (inactive)

Prompt: Another compound to look at: "Cc1ccc(/C=C(\C#N)n2nc3cccc(F)c3n2)cc1"
Completion: 91.5% (inactive)

###

test system: A498 renal; assay: NCI-60 one-dose screen, 48 h; conditions: 10 µM unless noted
The panel holds about 83,000 compounds, 20% with a hit somewhere; the sample as a whole holds those more often. The source made the active and inactive calls. Rule for the calls: active = growth percent below 10; inactive = the rest.
Thanks in advance; please answer with one of these: 1 = active, 0 = inactive

Prompt: Hi, do you know how COc1cc(C(=O)N2N=C(c3ccc(S(C)(=O)=O)cc3)CC2c2ccco2)cc(OC)c1OC (centres undefined) came out in this test?
Completion: 0

Prompt: Now give it for "C#C[C@]1(O)CC[C@H]2[C@@H]3CC=C4c5sc(Nc6cc(F)ccc6F)nc5CC[C@]4(C)[C@H]3CC[C@@]21C" too.
Completion: 1

Prompt: Another molecule to look at: "Cc1cc2nc3ccc(N=Nc4ccc(N(C)C)cc4)cc3n(-c3ccccc3)c-2cc1=N"
Completion: 1

Prompt: Entry "COC(=O)CCC/C=C\C[C@H]1C=CC(=O)/C1=C/C[C@@H](O)CCc1cccc(C(F)(F)F)c1" please
Completion: 1

Prompt: Now consider "O=C1c2cccc3cccc(c23)C(=O)N1N1C(=O)c2cccc3c(NC4CCCCC4)ccc(c23)C1=O" .
Completion: 0

Prompt: Continue with "N[C@@H](Cc1ccccc1)[C@@H](O)C(=O)NCc1ccc(F)cc1"
Completion: 0

Prompt: Please answer likewise for Cc1cccc2c3c(sc12)C(c1ccc(Cl)cc1)C(C#N)=C(N)O3 (centres undefined)
Completion: 1

Prompt: Next molecule: "COc1ccc(-c2nn(C(=O)c3cc(OC)c(OC)c(OC)c3)c3cc(N)ccc23)cc1"
Completion: 1

Prompt: Let us now turn to "CC(=O)Oc1ccccc1C(=O)N=C1[Se]CCCN1C(=O)c1ccccc1OC(C)=O"
Completion: 0

Prompt: Can you check "CC[C@H](C)C(=O)O[C@H]1CCC=C2C=C[C@H](C)[C@H](CC[C@@H]3CC=CC(=O)O3)[C@H]21" next?
Completion: 0

Prompt: # iterate: "Cc1cccc(NCc2cn(-c3ccc(C(=O)O)cc3)nc2-c2ccc(C(=O)O)cc2)n1"
Completion: 0

Prompt: Can you check "O=C(CCCCCCSc1nc(-c2ccccc2)cc(-c2ccccc2)n1)NO" next?
Completion: 0

Prompt: Similarly, "COc1ccc2[nH]c(-c3ccccc3)c(/C=C(\C#N)S(=O)(=O)c3ccccc3)c2c1" ?
Completion: 0

Prompt: Same question for "CCOC(=O)Nc1ccc(-c2nc(-c3cccc(OC)c3)c(-c3ccnc(Br)c3)[nH]2)cc1" please.
Completion: 0

Prompt: Now try "Cn1cc(-c2cc3ncnc(Nc4ccc(CC(=O)Nc5cc(C(C)(C)C)nn5C)cc4)c3s2)cn1" .
Completion: 1

Prompt: What do we get for "CCCCCCNC(=O)Oc1ccc(/C(=C(\C)c2ccc(Cl)cc2)c2ccc(OCCN(CC)CC)cc2)cc1" ?
Completion: 0

Prompt: Now the molecule "CCOC(=O)c1cn2ncnc(Oc3ccc(NC(=O)NCCN(CC)CC)c(Cl)c3)c2c1C"
Completion: 0

Prompt: Next entry: "NCCCNc1nc2ccc(Cl)cc2c2c(=O)c3cc(F)ccc3sc12"
Completion: 0

Prompt: Subsequent entry: "CCN(CC)Cc1cc(Nc2c3ccc(Cl)cc3nc3ccc(OC)cc23)ccc1O"
Completion: 0

Prompt: And then "O=C(Cc1ccc2c(c1)OCCO2)Nc1nc2ccc(F)cc2s1" , what is it?
Completion: 0

Prompt: How about OC(COc1ccccc1)CN1CCN(c2ccc(Cl)cc2)CC1 (centres undefined) ?
Completion: 0

Prompt: What about this molecule? "COc1cc(C(=O)c2cc(C)c3[nH]c4ccc(C)cc4c3c2C)cc(OC)c1OC"
Completion: 1

Prompt: Let us now turn to "Cc1cc(=O)[nH]c(=O)n1Cc1cn(-c2c3ccccc3nc3ccccc23)nn1"
Completion: 0

Prompt: Then "CCOC(=O)c1c(C)oc2ncnc(N3CCN(C(=O)COc4ccc(C(C)(C)C)cc4)CC3)c12" ?
Completion: 0

###

Exercise: state measured growth for each of the compounds provided.
test system: NCI-H522 lung; experiment: NCI-60 one-dose screen, 48 h (100 = growth as untreated, 0 = no growth, -100 = all killed); conditions: 10 µM unless noted
About 83,000 compounds went through this panel and 20% of them were active in at least one assay; those are over-represented in the sample as a whole.
Give just the number in %; leave the unit off.

Prompt: Recorded growth of O=C1CSC(c2c(Cl)cccc2Cl)N1c1nc(Cl)cc(=O)[nH]1 (stereo not drawn) , please.
Completion: 75.8

Prompt: # repeat for CCCCCCCCCCCCCCCCCC1OCC(COC(=O)O[C@]2(CC)C(=O)OCc3c2cc2n(c3=O)Cc3cc4ccccc4nc3-2)O1 (stereo partly drawn)
Completion: 82.6

Prompt: Request: "COc1ccc(/C=C(\C#N)n2nnc3c(F)cccc32)cc1"
Completion: 11.6

###

tested on: NCI-H226 lung; assay: NCI-60 one-dose screen, 48 h (100 = growth as untreated, 0 = no growth, -100 = all killed); settings: 10 µM unless noted
This is part of a sample that, as a whole, favours compounds with a hit. Of some 83,000 tested, about 20% had one in any assay.
Lab note - cut at 70% for growth: 1 if strictly below, 0 if not.

Prompt: Strictly below 70% in growth? Cc1ccc(C(CC(=O)O)c2c(C)[nH][nH]c2=O)cc1 (stereo not given)
Completion: 0

Prompt: Continue with "COc1ccc2[nH]c(-c3ccccc3)c(/C=C(\C#N)S(=O)(=O)c3ccccc3)c2c1"
Completion: 0

Prompt: // repeat for COc1cc(C2CC(c3ccc(SC)cc3)=NN2C(C)=O)cc(OC)c1OC (stereo not given) and report
Completion: 0

Prompt: How about N#CC1=C(N)Oc2c(sc3c(Br)cccc23)C1c1ccc([N+](=O)[O-])cc1 (stereo not given) ?
Completion: 1

Prompt: Now try "CC(=O)O.CN1[CH-]N(Cc2ccc(C#N)cc2)c2ccccc21.[Ag+]" .
Completion: 0

Prompt: And what about the molecule "Cc1ccc(NC2=C(Cl)C(=O)c3nc(C)ccc3C2=O)cc1" ?
Completion: 1

Prompt: Also check "COc1cc(CNS(=O)(=O)c2ccc(C)cc2)ccc1OCc1cn(-c2ccccc2)nn1"
Completion: 0

Prompt: Query "COc1cc(CCC[P+](c2ccccc2)(c2ccccc2)c2ccccc2)c(OC)c(OC)c1OC" next
Completion: 0

Prompt: // repeat for "COc1ccc(-c2nn(C(=O)c3cc(OC)c(OC)c(OC)c3)c3cc(N)ccc23)cc1" and report
Completion: 1

Prompt: Input "CC(=O)c1ccc(Nc2nc(C(C)=O)c(C)s2)cc1"
Completion: 1

Prompt: How about this molecule: CC([C@H]1CCC2C3CCC4C[C@@H](NC=O)CC[C@]4(C)C3CC[C@@]21C)N(C)C (stereo not given in full)
Completion: 1

Prompt: Another molecule: "Cc1c(C(=O)N[C@@H](Cc2ccccc2)C(=O)C(=O)NCc2ccc(F)cc2)[nH]c2ccccc2c1=O"
Completion: 0

Prompt: Would you kindly repeat that for "NCCCNc1nc2ccccc2c2c(=O)c3cc(F)cc(F)c3sc12" ?
Completion: 0

Prompt: Next entry: "CCCCCCCCCCCCCCCCCCOc1ccccc1CC(=O)OCC[N+](CC)(CC)CC"
Completion: 1

Prompt: Entry to check: "O=C(Cc1ccc(F)c(Cl)c1)Nc1cc(C2(C(F)(F)F)CC2)nn1Cc1ccccc1"
Completion: 1

Prompt: Record: "COc1cc(/C=C/c2c(C(C)=O)c(C)nc3ccccc23)cc(OC)c1OC"
Completion: 1

Prompt: Also need COC(=O)C(Cc1ccccc1)NC(=O)NC(=O)NC(=O)CI (stereo not given) , thanks.
Completion: 0

Prompt: Now consider "c1ccc(Cc2nn3cc(-c4ccccc4)nc3s2)cc1" and answer again.
Completion: 0

Prompt: One more molecule: "CCc1ccc2nc(NC(=O)Cc3csc(NC(=O)c4ccco4)n3)sc2c1"
Completion: 0

Prompt: Try this molecule next: "NC(=O)C1(Nc2ccc(Br)cc2)CCCC1"
Completion: 0
